- protocol description: chemical genetic growth profiling, strain panel (AID 1159580);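 further: tested at 20 µM; growth read once vehicle control cultures reached saturation at 30 °C; 1 = growth at the plate median or of vehicle wells; lower values mean less growth of the strain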
- run parameters: S. cerevisiae deletion strains, growth OD, locus YMR223W, strain ubp8, hits give low values
In all, about 5,500 compounds went through this assay and about 2,000 (36%) were called active. About 18% were inconclusive and are not listed. This is one part of the list.
readout type: normalized growth
Answer with the value's number alone.

So what's the measured normalized growth for this one? CC(=O)O[C@H]1CC[C@@]2(C)C(C[C@@H](OC(C)=O)[C@@]3(C)C4=CC(=O)O[C@@H](c5ccoc5)[C@]4(C)CCC23)C1(C)C (some centres undefined)
0.983

So what's the measured normalized growth for this one? CC(=O)O[C@@H]1CC2C(C)(C)[C@H](O)C=C[C@]2(C)C2CC[C@]3(C)C(=CC(=O)O[C@H]3c3ccoc3)[C@@]21C (some centres undefined)
1

So what's the measured normalized growth for this one? `NCC(=O)c1ccccc1`
0.987

So what's the measured normalized growth for this one? CC(=O)O[C@@H]1CC2C(C)(C)C(=O)C=C[C@]2(C)C2CC[C@]3(C)C(=CC(=O)O[C@H]3c3ccoc3)[C@@]21C (some centres undefined)
1.01
